Data origin, for the record: PubChem BioAssay

experiment: AGP1-GFP expression modulators, hit retest, confirmation, cell-based, flow cytometry, S. cerevisiae, cherry picks (AID 2273);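 note: median GFP channel fluorescence over the whole cell population gate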; settings: S. cerevisiae AGP1-GFP strain, 3 h, at 10 µM
Below: a set of entries, each annotated with reported GFP response, % of DMSO.
The answer is to be given in %; state only the numeric part.

Record excerpt, results attached:
[
  {
    "COMPOUND": "CC(=O)Nc1ccc(NC(=O)c2nc(S(=O)(=O)Cc3cccc(C)c3)ncc2Cl)cc1",
    "UNIT TAG": "%",
    "GFP response, % of DMSO": 97.4
  },
  {
    "COMPOUND": "CCC(=O)c1ccc(N2CCN(C(=O)c3ccc(Br)cc3)CC2)c(F)c1",
    "UNIT TAG": "%",
    "GFP response, % of DMSO": 96.1
  },
  {
    "COMPOUND": "Cc1[nH]c2ccccc2c1C(=O)C(C)OC(=O)C1CCC1 (stereo unspecified)",
    "UNIT TAG": "%",
    "GFP response, % of DMSO": 105
  }
]

Task: Can you share its GFP response, % of DMSO? I mean this compound: COc1cccc(C(=O)/C=C/c2ccc(SC)cc2)c1
Result: 101

Task: Can you share its GFP response, % of DMSO? I mean this compound: CC1=NNC(=O)/C1=C\c1cn(-c2ccccc2)nc1-c1ccc(Cl)cc1
Result: 105

Task: Can you share its GFP response, % of DMSO? I mean this compound: CS(=O)(=O)N1N=C(c2ccc3nccnc3c2)CC1c1ccccc1 (stereo unspecified)
Result: 98.4

Task: Can you share its GFP response, % of DMSO? I mean this compound: Cc1cc(NCCCn2ccnc2)n2ncc(-c3ccccc3)c2n1
Result: 104

Task: Can you share its GFP response, % of DMSO? I mean this compound: COc1ccc(COC(=O)c2n[nH]c3ccccc23)cc1F
Result: 95

Task: Can you share its GFP response, % of DMSO? I mean this compound: CCOc1cc(/C=C2\N=C(C)OC2=O)cc(Br)c1OCC(=O)OC
Result: 94

Task: Can you share its GFP response, % of DMSO? I mean this compound: Cc1ccc(C(=O)NNC(=S)NC(=O)c2ccco2)cc1
Result: 103

Task: Can you share its GFP response, % of DMSO? I mean this compound: COC(=O)Cn1nc(-c2ccccc2)c2cc(Cl)ccc21
Result: 102
